# key: entry, value: PBM binding z-score
Tested on: PPARa:RXRa (NR concentration 270 nM, RXRa partner concentration 90 nM)
Test: PBM binding z-score (relative to random genomic background probes); higher = stronger binding; sequences stand for … in GC…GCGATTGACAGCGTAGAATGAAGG
Number only, no unit.

[[record]]
residue_codes = "CTCGAAAGGTCGTGCTCGGGTGAGTATACCAAAC"
measured_on = "PPARa:RXRa (NR concentration 270 nM, RXRa partner concentration 90 nM)"
endpoint_result = 4.83

[[record]]
residue_codes = "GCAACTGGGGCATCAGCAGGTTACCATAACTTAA"
measured_on = "PPARa:RXRa (NR concentration 270 nM, RXRa partner concentration 90 nM)"
endpoint_result = 1.83

[[record]]
residue_codes = "TCGAGTAGGTTAGTCGAGGCATTCAGCCAACATA"
measured_on = "PPARa:RXRa (NR concentration 270 nM, RXRa partner concentration 90 nM)"
endpoint_result = 0.172

[[record]]
residue_codes = "AGATCGAGGGCACGCTGAGTTGATAGCAGAGTAG"
measured_on = "PPARa:RXRa (NR concentration 270 nM, RXRa partner concentration 90 nM)"
endpoint_result = 1.83

[[record]]
residue_codes = "CCTTACGGGTCACTGGCAGGTTATAGCATTTGGA"
measured_on = "PPARa:RXRa (NR concentration 270 nM, RXRa partner concentration 90 nM)"
endpoint_result = 5.15


The recorded PBM binding z-score with PPARa:RXRa (NR concentration 270 nM, RXRa partner concentration 90 nM) for `TATACAGGGTCCAAGGCCAGAGTACGAATGTCGA` was 0.314

Entry `CTCGAAAGGTCGGTTGAGGGGAGTATACGGATAA` ; assay system PPARa:RXRa (NR concentration 270 nM, RXRa partner concentration 90 nM); PBM binding z-score recorded at 2.39

Entry `CGTCAAAGTTCAAATAAGGTAACGTAAAGCACGC` , PPARa:RXRa (NR concentration 270 nM, RXRa partner concentration 90 nM) data, PBM binding z-score value: 4.95

Response field PBM binding z-score (PPARa:RXRa (NR concentration 270 nM, RXRa partner concentration 90 nM)) for item `CCTCGGAGGACAGAAGGTCAGAGATGTCCGCTTT` : 1.55

Tested on PPARa:RXRa (NR concentration 270 nM, RXRa partner concentration 90 nM): `TATCCTAGGTCATTCAGGGGCCAGTATAGAAAGC` . Observed PBM binding z-score: 4.18

----------
System: PPARa:RXRa (NR concentration 270 nM, RXRa partner concentration 90 nM)
Assay: PBM binding z-score (relative to random genomic background probes); higher = stronger binding; sequences stand for … in GC…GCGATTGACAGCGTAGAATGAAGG
MEASURED_ENDPOINT: PBM binding z-score
// return just the number, without any unit appended

// solved cases for PBM binding z-score follow
[[record]]
residue_codes = "TCTTGTAGATCAGTAGAGGTTAAGAAAGTGCGCT"
measured_endpoint = "PBM binding z-score"
endpoint_result = 1.44

[[record]]
residue_codes = "GCTGCTAGGTCAGGTTGGTCAGCCAACGGGTACG"
measured_endpoint = "PBM binding z-score"
endpoint_result = 1.36

[[record]]
residue_codes = "CAAACTAGGACAAGAGGTCAAAGTCCGCTTCCCG"
measured_endpoint = "PBM binding z-score"
endpoint_result = 5.48

[[record]]
residue_codes = "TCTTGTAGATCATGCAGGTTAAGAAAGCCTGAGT"
measured_endpoint = "PBM binding z-score"
endpoint_result = 1.14

[[record]]
residue_codes = "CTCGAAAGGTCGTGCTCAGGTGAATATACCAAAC"
measured_endpoint = "PBM binding z-score"
endpoint_result = 5.05


// sample `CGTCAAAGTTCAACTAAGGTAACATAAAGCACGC` , its PBM binding z-score was 5.1

# PBM binding z-score (sequence: `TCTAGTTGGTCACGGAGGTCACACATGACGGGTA` ) is 4.06

get_value(item= `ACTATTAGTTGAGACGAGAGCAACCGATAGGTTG` , readout=PBM binding z-score) returns -0.533

# PBM binding z-score of `AATACAGGGTCATCGTAGGCCAAAGTACGCACAG` = 6.04
